procedure details: total protein half-life in vivo (active degradation + dilution); higher = more stable protein
condition context: E. coli NCM3722 delta-smpB; growth: N-lim chemostat; doubling time 6 h
measurement name: total protein half-life in vivo (h)
Numbers only, in h.

# example entries with known answers
>  <sequence code>
MKILLAALTSSFMLVGCTPRIEVAAPKEPITINMNVKIEHEIIIKADKDVEELLETRSDLF

>  <measurement name>
total protein half-life in vivo

>  <output unit>
h

>  <endpoint result>
5.66

$$$$
>  <sequence code>
MNFLAHLHLAHLAESSLSGNLLADFVRGNPEESFPPDVVAGIHMHRRIDVLTDNLPEVREAREWFRSETRRVAPITLDVMWDHFLSRHWSQLSPDFPLQEFVCYAREQVMTILPDSPPRFINLNNYLWSEQWLVRYRDMDFIQNVLNGMASRRPRLDALRDSWYDLDAHYDALETRFWQFYPRMMAQASRKAL

>  <measurement name>
total protein half-life in vivo

>  <output unit>
h

>  <endpoint result>
3.83

$$$$

Go through the items and report each one's total protein half-life in vivo.
1. MIKSALLVLEDGTQFHGRAIGATGSAVGEVVFNTSMTGYQEILTDPSYSRQIVTLTYPHIGNVGTNDADEESSQVHAQGLVIRDLPLIASNFRNTEDLSSYLKRHNIVAIADIDTRKLTRLLREKGAQNGCIIAGDNPDAALALEKARAFPGLNGMDLAKEVTTAEAYSWTQGSWTLTGGLPEAKKEDELPFHVVAYDFGAKRNILRMLVDRGCRLTIVPAQTSAEDVLKMNPDGIFLSNGPGDPAPCDYAITAIQKFLETDIPVFGICLGHQLLALASGAKTVKMKFGHHGGNHPVKDVEKNVVMITAQNHGFAVDEATLPANLRVTHKSLFDGTLQGIHRTDKPAFSFQGHPEASPGPHDAAPLFDHFIELIEQYRKTAK [P0A6F1]
2. MRKQWLGICIAAGMLAACTSDDGQQQTVSVPQPAVCNGPIVEISGADPRFEPLNATANQDYQRDGKSYKIVQDPSRFSQAGLAAIYDAEPGSNLTASGEAFDPTQLTAAHPTLPIPSYARITNLANGRMIVVRINDRGPYGNDRVISLSRAAADRLNTSNNTKVRIDPIIVAQDGSLSGPGMACTTVAKQTYALPAPPDLSGGAGTSSVSGPQGDILPVSNSTLKSEDPTGAPVTSSGFLGAPTTLAPGVLEGSEPTPAPQPVVTAPSTTPATSPAMVTPQAVSQSASGNFMVQVGAVSDQARAQQYQQQLGQKFGVPGRVTQNGAVWRIQLGPFASKAEASTLQQRLQTEAQLQSFITTAQ
3. MFKKGLLALALVFSLPVFAAEHWIDVRVPEQYQQEHVQGAINIPLKEVKERIATAVPDKNDTVKVYCNAGRQSGQAKEILSEMGYTHVENAGGLKDIAMPKVKG
4. MKQPGEELQETLTELDDRAVVDYLIKNPEFFIRNARAVEAIRVPHPVRGTVSLVEWHMARARNHIHVLEENMALLMEQAIANEGLFYRLLYLQRSLTAASSLDDMLMRFHRWARDLGLAGASLRLFPDRWRLGAPSNHTHLALSRQSFEPLRIQRLGQEQHYLGPLNGPELLVVLPEAKAVGSVAMSMLGSDADLGVVLFTSRDASHYQQGQGTQLLHEIALMLPELLERWIERV

a:
1: 4.63; 2: 5.65; 3: 2.61; 4: 0.944

Go through the items and report each one's total protein half-life in vivo.
1. MSKKIVLALGGNALGDDLAGQMKAVKITSQAIVDLIAQGHEVIVTHGNGPQVGMINQAFEAAAKTEAHSPMLPMSVCVALSQGYIGYDLQNALREELLSRGINKPVATLVTQVEVDANDPAFLNPTKPIGSFFTEQEAEQLTKQGYTLKEDAGRGYRRVVASPKPVDIIEKETVKALVDAGQVVITVGGGGIPVIREGNHLRGASAVIDKDWASARLAEMIDADMLIILTAVEKVAINFGKENEQWLDRLSLSDAERFIEEGHFAKGSMLPKVEAAASFARSRAGREALITVLSKAKEGIEGKTGTVICQ
2. MPLHNLTRFPRLEFIGAPTPLEYLPRFSDYLGREIFIKRDDVTPMAMGGNKLRKLEFLAADALREGADTLITAGAIQSNHVRQTAAVAAKLGLHCVALLENPIGTTAENYLTNGNRLLLDLFNTQIEMCDALTDPNAQLEELATRVEAQGFRPYVIPVGGSNALGALGYVESALEIAQQCEGAVNISSVVVASGSAGTHAGLAVGLEHLMPESELIGVTVSRSVADQLPKVVNLQQAIAKELELTASAEILLWDDYFAPGYGVPNDEGMEAVKLLARLEGILLDPVYTGKAMAGLIDGISQKRFKDEGPILFIHTGGAPALFAYHPHV
3. MIEADRLISAGTTLPEDVADRAIRPKLLEEYVGQPQVRSQMEIFIKAAKLRGDALDHLLIFGPPGLGKTTLANIVANEMGVNLRTTSGPVLEKAGDLAAMLTNLEPHDVLFIDEIHRLSPVVEEVLYPAMEDYQLDIMIGEGPAARSIKIDLPPFTLIGATTRAGSLTSPLRDRFGIVQRLEFYQVPDLQYIVSRSARFMGLEMSDDGALEVARRARGTPRIANRLLRRVRDFAEVKHDGTISADIAAQALDMLNVDAEGFDYMDRKLLLAVIDKFFGGPVGLDNLAAAIGEERETIEDVLEPYLIQQGFLQRTPRGRMATTRAWNHFGITPPEMP [P0A812]
4. MRLEFSIYRYNPDVDDAPRMQDYTLEADEGRDMMLLDALIQLKEKDPSLSFRRSCREGVCGSDGLNMNGKNGLACITPISALNQPGKKIVIRPLPGLPVIRDLVVDMGQFYAQYEKIKPYLLNNGQNPPAREHLQMPEQREKLDGLYECILCACCSTSCPSFWWNPDKFIGPAGLLAAYRFLIDSRDTETDSRLDGLSDAFSVFRCHSIMNCVSVCPKGLNPTRAIGHIKSMLLQRNA
5. MKIGIIGAMEEEVTLLRDKIENRQTISLGGCEIYTGQLNGTEVALLKSGIGKVAAALGATLLLEHCKPDVIINTGSAGGLAPTLKVGDIVVSDEARYHDADVTAFGYEYGQLPGCPAGFKADDKLIAAAEACIAELNLNAVRGLIVSGDAFINGSVGLAKIRHNFPQAIAVEMEATAIAHVCHNFNVPFVVVRAISDVADQQSHLSFDEFLAVAAKQSSLMVESLVQKLAHG [P0AF12]
6. MGFLSGKRILVTGVASKLSIAYGIAQAMHREGAELAFTYQNDKLKGRVEEFAAQLGSDIVLQCDVAEDASIDTMFAELGKVWPKFDGFVHSIGFAPGDQLDGDYVNAVTREGFKIAHDISSYSFVAMAKACRSMLNPGSALLTLSYLGAERAIPNYNVMGLAKASLEANVRYMANAMGPEGVRVNAISAGPIRTLAASGIKDFRKMLAHCEAVTPIRRTVTIEDVGNSAAFLCSDLSAGISGEVVHVDGGFSIAAMNELELK [P0AEK4]

a:
2.48
5.72
1.63
5.06
5.43
4.97
